The reported measurements were obtained from ChEMBL document CHEMBL1121578.

- Test system: Mus musculus
- protocol-description: In vivo increase in life span of drug treated (L1210-bearing) mice administered at a dose of 200 mg/kg/injection
- Format: functional
value-kind: ILS at 200 mg/kg (%)
Please respond with the number in % and leave the unit unwritten.

ILS at 200 mg/kg measured on CSc1ncnc2c1c1c(N)ncnc1n2C1O[C@H](CO)[C@@H](O)[C@H]1O (some centres undefined) = 9

ILS at 200 mg/kg measured on CSc1nc(O)c2c3c(N)ncnc3n(C3O[C@H](CO)[C@@H](O)[C@H]3O)c2n1 (some centres undefined) = 0

ILS at 200 mg/kg measured on C=CCSc1ncnc2c1c1c(N)ncnc1n2C1O[C@H](CO)[C@@H](O)[C@H]1O (some centres undefined) = 9

ILS at 200 mg/kg measured on CSc1nc(SC)c2c3c(N)ncnc3n(C3O[C@H](CO)[C@@H](O)[C@H]3O)c2n1 (some centres undefined) = 45

ILS at 200 mg/kg measured on `Nc1nc2c(c(=O)[nH]1)c1c(N)ncnc1n2[C@@H]1O[C@H](CO)[C@@H](O)[C@H]1O` = 13

ILS at 200 mg/kg measured on CSc1nc(O)nc2c1c1c(N)ncnc1n2C1O[C@H](CO)[C@@H](O)[C@H]1O (some centres undefined) = 4

ILS at 200 mg/kg measured on Nc1ncnc2c1c1cncnc1n2C1O[C@H](CO)[C@@H](O)[C@H]1O (some centres undefined) = 2

ILS at 200 mg/kg measured on Nc1ncnc2c1c1c(SCc3ccc([N+](=O)[O-])cc3)ncnc1n2C1O[C@H](CO)[C@@H](O)[C@H]1O (some centres undefined) = -2

ILS at 200 mg/kg measured on Nc1ncnc2c1c1c(N)nc(O)nc1n2C1O[C@H](CO)[C@@H](O)[C@H]1O (some centres undefined) = 21
